The origin of these recorded values is ChEMBL document CHEMBL2311267.

Tested on: Plasma
test-details: Anticoagulant activity in New Zealand white rabbit platelet-poor plasma assessed as thrombin time at 100 uM
Format: functional, Oryctolagus cuniculus
Reported TT values for a set of molecules

molecule | TT / s
O=c1cc(-c2ccc(O)cc2)oc2cc(O[C@@H]3O[C@H](CO)[C@H](O)[C@H](O)[C@H]3O)c(O)c(O)c12 | 29.17
O=c1cc(-c2ccc(O)cc2)oc2cc(O[C@@H]3O[C@H](CO)[C@@H](O)[C@H](O)[C@@H]3O)c(O)c(O)c12 | 20.54
O=C(O)[C@H]1O[C@@H](Oc2cc3oc(-c4ccc(O)cc4)cc(=O)c3c(O)c2O)[C@H](O)[C@@H](O)[C@@H]1O [SCUTELLARIN] | 21.35
O=c1cc(-c2ccc(O)cc2)oc2cc(O[C@@H]3O[C@H](CO)[C@@H](O)[C@H](O)[C@H]3O)c(O)c(O)c12 | 18.13

* * *

Reported solubility values for a set of compounds
test-details: Aqueous solubility of the compound by UV-Vis spectrophotometric analysis
Format: physicochemical
stated-conditions: water

smiles | solubility / µM
O=c1cc(-c2ccc(O)cc2)oc2cc(O[C@@H]3O[C@H](CO)[C@@H](O)[C@H](O)[C@H]3O)c(O)c(O)c12 | 7.85
O=c1cc(-c2ccc(O)cc2)oc2cc(O[C@@H]3O[C@H](CO)[C@@H](O)[C@H](O)[C@@H]3O)c(O)c(O)c12 | 8.19
O=C(O)[C@H]1O[C@@H](Oc2cc3oc(-c4ccc(O)cc4)cc(=O)c3c(O)c2O)[C@H](O)[C@@H](O)[C@@H]1O | 7.53
O=c1cc(-c2ccc(O)cc2)oc2cc(O[C@@H]3O[C@H](CO)[C@H](O)[C@H](O)[C@H]3O)c(O)c(O)c12 | 8.93

* * *

Tested on: Plasma
test-details: Anticoagulant activity in New Zealand white rabbit platelet-poor plasma assessed as fibrinogen content at 100 uM
Assay type: functional, Oryctolagus cuniculus
Reported Activity values for a set of molecules
outcome-measure: Activity (g/L)

smiles | result-value
O=C(O)[C@H]1O[C@@H](Oc2cc3oc(-c4ccc(O)cc4)cc(=O)c3c(O)c2O)[C@H](O)[C@@H](O)[C@@H]1O | 37.96
O=c1cc(-c2ccc(O)cc2)oc2cc(O[C@@H]3O[C@H](CO)[C@@H](O)[C@H](O)[C@H]3O)c(O)c(O)c12 | 32.43
O=c1cc(-c2ccc(O)cc2)oc2cc(O[C@@H]3O[C@H](CO)[C@H](O)[C@H](O)[C@H]3O)c(O)c(O)c12 | 20.81
O=c1cc(-c2ccc(O)cc2)oc2cc(O[C@@H]3O[C@H](CO)[C@@H](O)[C@H](O)[C@@H]3O)c(O)c(O)c12 | 26.68
